Catalogue of sequences with associated binding signal
- ASSAY_SYSTEM: GST-Hu-p50 (Homo sapiens, UniProt P19838 7-356)
- Sequence (P19838 7-356): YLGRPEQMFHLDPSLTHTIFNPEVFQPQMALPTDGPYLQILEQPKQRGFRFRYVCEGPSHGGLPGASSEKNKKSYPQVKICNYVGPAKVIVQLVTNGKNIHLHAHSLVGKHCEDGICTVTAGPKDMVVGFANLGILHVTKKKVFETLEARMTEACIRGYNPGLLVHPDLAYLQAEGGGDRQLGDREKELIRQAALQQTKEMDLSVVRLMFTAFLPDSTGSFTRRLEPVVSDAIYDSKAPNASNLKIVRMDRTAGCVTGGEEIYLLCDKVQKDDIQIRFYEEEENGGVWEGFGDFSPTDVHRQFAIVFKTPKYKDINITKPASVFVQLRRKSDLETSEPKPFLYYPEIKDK
- ASSAY_METHOD_TEXT: protein-binding microarray (PBM); PBM: ~300 nM protein, 6 mM HEPES pH 7.8, 80 mM KCl, 0.5 mM EDTA, 0.5 mM EGTA, 6% glycerol, 35 ng/ul poly-dIdC, 1% milk, 1 h, room temperature; Ap Aiptasia and Nv Nematostella (sea anemones) / Co Capsaspora / Aq Amphimedon (sponge) / Dm Drosophila / Hu human; RHD is the Rel homology domain; high values mean tight binding
- STUDY_CONDITIONS: dsDNA, one strand shown

SEQUENCE_ENTRY: CCGATTAACATCACAGAATTCCCTGATGTTAATCGGGTCTTGATTCGCTTGACGCTGCTG
QUANTITY_UNIT: z-score
binding signal: 4.93

SEQUENCE_ENTRY: CCGATTAACATCAACTATCCCCCTGATGTTAATCGGGTCTTGATTCGCTTGACGCTGCTG
QUANTITY_UNIT: z-score
binding signal: 4.09

SEQUENCE_ENTRY: CCGATTAACATCATATGGGAAAATGATGTTAATCGGGTCTTGATTCGCTTGACGCTGCTG
QUANTITY_UNIT: z-score
binding signal: 2.72

SEQUENCE_ENTRY: CCGATTAACATCAGTTTCCCCCATGATGTTAATCGGGTCTTGATTCGCTTGACGCTGCTG
QUANTITY_UNIT: z-score
binding signal: 6.77

SEQUENCE_ENTRY: CCGATTAACATCAGGGAGGCCCCTGATGTTAATCGGGTCTTGATTCGCTTGACGCTGCTG
QUANTITY_UNIT: z-score
binding signal: 3.63

SEQUENCE_ENTRY: CCGATTAACATCAAATAGTCCCCTGATGTTAATCGGGTCTTGATTCGCTTGACGCTGCTG
QUANTITY_UNIT: z-score
binding signal: 5.39

SEQUENCE_ENTRY: CCGATTAACATCAGGGAGTTTACTGATGTTAATCGGGTCTTGATTCGCTTGACGCTGCTG
QUANTITY_UNIT: z-score
binding signal: 4.19

SEQUENCE_ENTRY: CCGATTAACATCAGGGGAAGTAATGATGTTAATCGGGTCTTGATTCGCTTGACGCTGCTG
QUANTITY_UNIT: z-score
binding signal: 5.36

SEQUENCE_ENTRY: CCGATTAACATCAGGGGTAAATATGATGTTAATCGGGTCTTGATTCGCTTGACGCTGCTG
QUANTITY_UNIT: z-score
binding signal: 3.84

SEQUENCE_ENTRY: CCGATTAACATCAATTTTCCCCATGATGTTAATCGGGTCTTGATTCGCTTGACGCTGCTG
QUANTITY_UNIT: z-score
binding signal: 6.08

SEQUENCE_ENTRY: CCGATTAACATCACGGGGCCCCCTGATGTTAATCGGGTCTTGATTCGCTTGACGCTGCTG
QUANTITY_UNIT: z-score
binding signal: 3.47

SEQUENCE_ENTRY: CCGATTAACATCAGGGAATAACCTGATGTTAATCGGGTCTTGATTCGCTTGACGCTGCTG
QUANTITY_UNIT: z-score
binding signal: 5.21

SEQUENCE_ENTRY: CCGATTAACATCAAACTTCCCCATGATGTTAATCGGGTCTTGATTCGCTTGACGCTGCTG
QUANTITY_UNIT: z-score
binding signal: 5.87

SEQUENCE_ENTRY: CCGATTAACATCAAGTTTCCCCCTGATGTTAATCGGGTCTTGATTCGCTTGACGCTGCTG
QUANTITY_UNIT: z-score
binding signal: 7.11

SEQUENCE_ENTRY: CCGATTAACATCAAGAAGTTCCCTGATGTTAATCGGGTCTTGATTCGCTTGACGCTGCTG
QUANTITY_UNIT: z-score
binding signal: 3.17

SEQUENCE_ENTRY: CCGATTAACATCAGGGTGGGAAATGATGTTAATCGGGTCTTGATTCGCTTGACGCTGCTG
QUANTITY_UNIT: z-score
binding signal: 2.15

SEQUENCE_ENTRY: CCGATTAACATCAAGCAATCCCCTGATGTTAATCGGGTCTTGATTCGCTTGACGCTGCTG
QUANTITY_UNIT: z-score
binding signal: 5.37

SEQUENCE_ENTRY: CCGATTAACATCAAATTCCCCCGTGATGTTAATCGGGTCTTGATTCGCTTGACGCTGCTG
QUANTITY_UNIT: z-score
binding signal: 7.06

SEQUENCE_ENTRY: CCGATTAACATCAGATTCCCCCATGATGTTAATCGGGTCTTGATTCGCTTGACGCTGCTG
QUANTITY_UNIT: z-score
binding signal: 6.7

SEQUENCE_ENTRY: CCGATTAACATCAAATTCCCCCATGATGTTAATCGGGTCTTGATTCGCTTGACGCTGCTG
QUANTITY_UNIT: z-score
binding signal: 7.09

SEQUENCE_ENTRY: CCGATTAACATCAGACATTTCCCTGATGTTAATCGGGTCTTGATTCGCTTGACGCTGCTG
QUANTITY_UNIT: z-score
binding signal: 3.59

SEQUENCE_ENTRY: CCGATTAACATCAGATAACCCCCTGATGTTAATCGGGTCTTGATTCGCTTGACGCTGCTG
QUANTITY_UNIT: z-score
binding signal: 5.79

SEQUENCE_ENTRY: CCGATTAACATCAAAATTTTCCCTGATGTTAATCGGGTCTTGATTCGCTTGACGCTGCTG
QUANTITY_UNIT: z-score
binding signal: 5.99

SEQUENCE_ENTRY: CCGATTAACATCACAAACTCCCCTGATGTTAATCGGGTCTTGATTCGCTTGACGCTGCTG
QUANTITY_UNIT: z-score
binding signal: 5.66
